Entry source: patent US20250115597A1

target_under_test: Ba/F3-FL-TYK2-P760L cells (Homo sapiens, UniProt P29597, P760L, cells depend on it)
Construct: BaF3-FL-T2P760L (nM)
Sequence (P29597 whole entry P760L): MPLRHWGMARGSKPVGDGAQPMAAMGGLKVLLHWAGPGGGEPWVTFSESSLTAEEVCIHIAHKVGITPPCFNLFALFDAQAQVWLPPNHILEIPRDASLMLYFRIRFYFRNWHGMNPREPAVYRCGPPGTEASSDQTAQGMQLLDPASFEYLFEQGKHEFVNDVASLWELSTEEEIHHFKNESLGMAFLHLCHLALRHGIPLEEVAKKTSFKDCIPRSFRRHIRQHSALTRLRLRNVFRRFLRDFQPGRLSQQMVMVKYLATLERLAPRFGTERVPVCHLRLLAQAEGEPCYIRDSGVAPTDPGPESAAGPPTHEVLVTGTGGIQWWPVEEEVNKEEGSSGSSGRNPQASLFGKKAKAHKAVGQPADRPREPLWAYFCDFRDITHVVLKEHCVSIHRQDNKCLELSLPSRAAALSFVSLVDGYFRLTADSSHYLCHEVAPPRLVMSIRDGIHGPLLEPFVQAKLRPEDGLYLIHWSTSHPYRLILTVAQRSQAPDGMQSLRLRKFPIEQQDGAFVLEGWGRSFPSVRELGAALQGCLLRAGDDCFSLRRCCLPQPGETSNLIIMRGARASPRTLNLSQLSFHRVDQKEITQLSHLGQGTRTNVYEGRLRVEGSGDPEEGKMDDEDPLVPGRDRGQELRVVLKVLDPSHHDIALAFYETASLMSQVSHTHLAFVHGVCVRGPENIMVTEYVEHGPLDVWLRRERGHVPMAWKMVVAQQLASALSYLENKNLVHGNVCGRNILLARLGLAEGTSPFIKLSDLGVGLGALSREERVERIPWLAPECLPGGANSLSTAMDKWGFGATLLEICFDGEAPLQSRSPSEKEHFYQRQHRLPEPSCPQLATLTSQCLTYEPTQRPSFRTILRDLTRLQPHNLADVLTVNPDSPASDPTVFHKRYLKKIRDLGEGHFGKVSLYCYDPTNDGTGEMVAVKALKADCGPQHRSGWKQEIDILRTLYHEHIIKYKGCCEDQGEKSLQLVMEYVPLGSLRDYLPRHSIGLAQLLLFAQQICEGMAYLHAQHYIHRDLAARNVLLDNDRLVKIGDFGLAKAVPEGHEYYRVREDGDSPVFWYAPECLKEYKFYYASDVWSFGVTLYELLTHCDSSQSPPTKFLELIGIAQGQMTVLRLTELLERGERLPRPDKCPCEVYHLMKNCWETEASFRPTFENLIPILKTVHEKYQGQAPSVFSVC
assay_info: Anti-proliferative assay, Ba/F3-FL-TYK2-P760L cells (Cell-Titer Glo)
Assay type: cell-based
condition_info: 72 h, read-out: BaF3-FL-T2P760L IC50
endpoint_label: GI50 (nM)

{"columns": ["compound_smiles", "target_under_test", "value_measured"],
 "data": [
  ["[2H]C([2H])([2H])NC(=O)c1cnc(NC(=O)C2CC2)cc1Nc1cn(CC(F)(F)F)c2ncn(CC)c(=O)c12", "Ba/F3-FL-TYK2-P760L cells (Homo sapiens, UniProt P29597, P760L, cells depend on it)", 217]
]}

P. [2H]C([2H])([2H])NC(=O)c1cnc(NC(=O)C2CC2)cc1Nc1csc2cnn(CC(F)(F)F)c(=O)c12
Q. [2H]C([2H])([2H])NC(=O)c1cnc(Nc2ccn(C)n2)cc1Nc1ccc2cnn(CC)c2c1OC
R. [2H]C([2H])([2H])NC(=O)c1cnc(NC(=O)C2CC2)cc1Nc1cn(C)c2ccn(CCOC)c(=O)c12
Asked: Ordering criterion: GI50; begin with the maximum. Please list each label once, in the requested order.
Given back: R, P, Q

* * *

assay_info: Hepatocytes metabolic stability assay
Assay type: in vitro ADME
condition_info: cryopreserved hepatocytes, human hepatocytes, 1.0×10^6 cells/mL, read-out: Human hepatocyte Clint(liver)
Experimental: Hepatocytes Metabolic Stability Assay The vials of cryopreserved hepatocytes were removed from the liquid nitrogen container and immediately immersed in a 37° C. water bath for approximately 2 min. The melted ice pellets were transferred into tubes containing 50 mL of pre-warmed thawing medium and mixed well by gently inverting the tubes, and then centrifuged at 500 rpm for 3 minutes at room temperature. […] The cells viability of each species was determined using Trypan Blue exclusion. […]
endpoint_label: CLint scaled at 1 μM (mL/min/kg)

Reference set, count: 2
{"columns": ["compound_smiles", "value_measured"],
 "data": [
  ["[2H]C([2H])([2H])NC(=O)c1cnc(Nc2ccncn2)cc1Nc1cc(F)c2cnn(CC)c2c1OC", 13.9],
  ["[2H]C([2H])([2H])NC(=O)c1cnc(NC(=O)C2CC2)cc1Nc1nn(CC)c2ccn(CC(F)(F)F)c(=O)c12", 8.69]
]}

P. [2H]C([2H])([2H])NC(=O)c1cnc(Nc2cnn(C3CC3)c2)nc1Nc1ccc2cnn(CC)c2c1OC([2H])([2H])[2H]
Q. [2H]C([2H])([2H])NC(=O)c1cnc(Nc2ccn(C)n2)cc1Nc1cc(F)c2cnn(CC)c2c1OC
R. [2H]C([2H])([2H])NC(=O)c1cnc(NC(=O)C2CC2)cc1Nc1ccc2cnn(CC)c2c1OC
Asked: // smallest CLint scaled at 1 μM at index 0, largest at the end Please express your ranking as an ordered list of the labels.
Given back: Q, P, R
(Q: 9.1 mL/min/kg, P: 14.4 mL/min/kg, R: 43.1 mL/min/kg)

a. [2H]C([2H])([2H])NC(=O)c1cnc(NC(=O)C2CC2)cc1Nc1ncc2cnn(CC)c2c1OC
b. [2H]C([2H])([2H])NC(=O)c1cnc(NC(=O)C2CC2)cc1Nc1ccn2ncc(C)c2c1OC
Asked: From the items above, decide which of a and b has the lower CLint scaled at 1 μM reading. Please reply using the label of the selected record.
Given back: b
(b: 8.6 mL/min/kg, a: 18.5 mL/min/kg)
